molecular target: SNX27, Q96L92; experiment: holdup assay; design: key: below the threshold = too weak to quantify, mostly under pKd 3.1 to 4; settings: plain residues with an end cap or a label only (N-terminal biotin on a linker: ahx)
measurement label: pKd
Form rule: numeric answer, no unit written next to it.

A selection of reference data follows.
{"columns": ["binder", "pKd"],
 "data": [
  ["TQKFRASTAL [FRMPD1, Q5SYB0]", 4.03],
  ["QDEKVKESYV [ABCA1, O95477]", 5.63],
  ["EKQAKGDTEF [CACYBP, Q9HB71]", 3.68],
  ["QPRTWLQSPV [RTKN, Q9BST9]", 4.31],
  ["HTHSYIETHV [CNKSR2, Q8WXI2]", 5.7],
  ["TESNLQTSSC [CGN, Q9P2M7]", 4.65]
]}

Kindly review the next binder as well.
Exercise: If you can, please state the reported pKd value of QNTDDVQTSF [ACE2, Q9BYF1] .
Key: 4.95

Numbers sourced from paper PMC9482650.
